# PROCEDURE DETAILS: Primary qHTS for delayed death inhibitors of the malarial parasite plastid, 96 hour incubation; on activity change, negative = inhibition: on the % scale 0 is the no-effect control and ±100 the full control effect
# STATED CONDITIONS: P. falciparum luciferase reporter growth; series mostly up to 28.7 µM
Screen size: about 320,000 compounds; about 22,000 (6.9%) were called active. Not shown: some 27% with an inconclusive outcome. This is one part of a sample in which actives are shown more often than they occur.
For each entry below, report its activity change, negative = inhibition value.

{"SMILES ENTRY": "Cc1cc(C)n(-c2nc(C(F)(F)F)nc3ccccc23)n1", "DATA VALUE": "14% [at 5.75 µM] (inactive)"}

Here are 3 compounds. What values of activity change, negative = inhibition were reported for them?
1. O=C(Nc1ccc(F)cc1)C1CCN(C(=O)c2ccc([N+](=O)[O-])cc2)CC1
2. O=C(NC1CCN(Cc2ccccc2)CC1)c1ccccc1F
3. Cc1ccccc1-c1n[nH]c(=S)n1C

1: 31.7% [at 5.75 µM] (inactive); 2: 202% [at 5.75 µM] (inactive); 3: 19.3% [at 5.75 µM] (inactive)

* * *

# PROCEDURE DETAILS: Primary qHTS for delayed death inhibitors of the malarial parasite plastid, 96 hour incubation
# STATED CONDITIONS: P. falciparum luciferase reporter growth; series mostly up to 28.7 µM
Screen size: about 320,000 compounds; about 22,000 (6.9%) were called active. Not shown: some 27% with an inconclusive outcome. Calls follow the shape of the dose curve; as a rule, active = well fitted inhibition curve with a large enough effect; inconclusive = small, poorly fitted or top-dose-only effect, or another doubt; inactive = no such curve, though single readings can be large or run the other way. The list comes from a sample in which actives are over-represented; it also holds close analogues and randomly drawn compounds.
Form entry, call: pick from Y for active, N for inactive

// known answers, use as guide
{"COMPOUND": "O=C(/C=C\\c1cn(-c2ccccc2)nc1-c1cccs1)N1CCOCC1", "ANSWER LABEL": "Y"}
{"COMPOUND": "COc1ccc(CCC(C)N2CCc3ccccc3C2)cc1 (stereo not drawn)", "ANSWER LABEL": "N"}
{"COMPOUND": "O=C(Nc1nnc(S(=O)(=O)N2CCOCC2)s1)c1cccc(Br)c1", "ANSWER LABEL": "N"}
{"COMPOUND": "NC(=O)c1cc(S(=O)(=O)N2CCCC2)ccc1OCc1ccc(F)cc1", "ANSWER LABEL": "N"}
{"COMPOUND": "CC(C)(CNC(=O)c1cc(=O)[nH]c2ccccc12)N1CCOCC1", "ANSWER LABEL": "N"}
{"COMPOUND": "CC(C)(CNCC(O)c1ccccc1)N1CCOCC1 (stereo not drawn)", "ANSWER LABEL": "Y"}
{"COMPOUND": "CCOc1ccc(OCc2ccc(C(=O)N(C)c3ccccc3)o2)cc1", "ANSWER LABEL": "N"}
{"COMPOUND": "CC(=O)Nc1cccc(NC(=O)CSc2nccn2Cc2ccc(F)cc2)c1", "ANSWER LABEL": "N"}
{"COMPOUND": "CC(NC(=O)C1CCCN(S(=O)(=O)c2ccc(-n3cnnn3)cc2)C1)c1ccc(F)cc1 (stereo not drawn)", "ANSWER LABEL": "N"}
{"COMPOUND": "O=C(CN1CCCCC1)Nc1ccc(Br)cc1C(=O)c1ccccc1Cl", "ANSWER LABEL": "Y"}

Hi, sorry to bother you, what did the test record for N#Cc1nc(-c2cccc3ccccc23)oc1N ?
N

Hi, sorry to bother you, what did the test record for Cc1ccc(S(=O)(=O)NCCC(=O)Nc2ccc(C)c(Cl)c2)cc1C ?
N

Hi, sorry to bother you, what did the test record for CCn1c(SCC(=O)NC2CCCC2)nnc1-c1ccoc1C ?
N

Hi, sorry to bother you, what did the test record for CC(CC(=O)N1CCN(c2ccccc2)CC1)c1ccccc1 (stereo not drawn) ?
N

Hi, sorry to bother you, what did the test record for Cn1c(=NC(=O)c2cnccn2)sc2ccccc21 ?
Y

Hi, sorry to bother you, what did the test record for CC(=O)Nc1ccc(NC(=O)CSC2=NS(=O)(=O)c3ccccc3N2)cc1 ?
N

Hi, sorry to bother you, what did the test record for O=C(NCC1CCCO1)/C(=C/c1ccc(Cl)cc1)NC(=O)c1ccccc1 (stereo not drawn) ?
N

Hi, sorry to bother you, what did the test record for Cc1cccc2cc3c(N)c(C(=O)N4CCCc5ccccc54)sc3nc12 ?
Y

Hi, sorry to bother you, what did the test record for Cc1ccccc1CSCC(=O)NC(=O)NC(C)(C)C ?
Y

Hi, sorry to bother you, what did the test record for Cn1c(N2CCOCC2)c(C=O)c2ccccc21 ?
N

* * *

# PROCEDURE DETAILS: Primary qHTS for delayed death inhibitors of the malarial parasite plastid, 96 hour incubation
# STATED CONDITIONS: P. falciparum luciferase reporter growth; series mostly up to 28.7 µM
Screen size: about 320,000 compounds; about 22,000 (6.9%) were called active. About 27% were inconclusive and are not listed. The sample as a whole holds a higher share of actives than the screen did.
VALUE KIND: outcome

Worked examples, 5 compounds total:
{"COMPOUND": "CC1(C)CC(=O)C=C(c2ccc3ncccc3c2)C1", "VALUE KIND": "outcome", "DATA VALUE": "inactive"}
{"COMPOUND": "CCCCC(=O)Nc1ccc(C(=O)Nc2cc(C(F)(F)F)ccc2Cl)cc1", "VALUE KIND": "outcome", "DATA VALUE": "inactive"}
{"COMPOUND": "COc1cccc(/C=C2\\Sc3ccc(C(=O)NCC4CCCO4)cc3N(C)C2=O)c1 (stereo unspecified)", "VALUE KIND": "outcome", "DATA VALUE": "inactive"}
{"COMPOUND": "Cc1ccc(OCC(=O)NCCCNC(=O)c2cccnc2)cc1C", "VALUE KIND": "outcome", "DATA VALUE": "inactive"}
{"COMPOUND": "Cc1cccc(N(C(=O)c2csnn2)C(C(=O)NCc2ccccc2)c2ccncc2)c1 (stereo unspecified)", "VALUE KIND": "outcome", "DATA VALUE": "inactive"}

I am curious: what outcome value has been reported for CC(C)(O)C#Cc1ccc(CN2CCC(CO)(CCc3ccccc3)CC2)cc1 ?
inactive

* * *

# PROCEDURE DETAILS: Primary qHTS for delayed death inhibitors of the malarial parasite plastid, 96 hour incubation
# STATED CONDITIONS: P. falciparum luciferase reporter growth; series mostly up to 28.7 µM
In all, about 320,000 compounds went through this assay and about 22,000 (6.9%) were called active. Inconclusive results (about 27%) are left out. The call rests on the fitted dose curve; in most records, active means well fitted inhibition curve with a large enough effect; inconclusive means small, poorly fitted or top-dose-only effect, or another doubt; inactive means no such curve, though single readings can be large or run the other way. Many of the other results were omitted from the sample, so actives are more common in it than they were.
Form entry, call: pick from active, inactive

// known answers, use as guide
{"COMPOUND": "CCn1c(CC(=O)Nc2ccc(C)cc2)nnc1SCC(=O)Nc1nc(C)cs1", "ANSWER LABEL": "inactive"}
{"COMPOUND": "CCN(CC(=O)NCc1cccs1)S(=O)(=O)c1ccc(NC(C)=O)cc1", "ANSWER LABEL": "inactive"}
{"COMPOUND": "Cc1cccc(Nc2nc3c(S(=O)(=O)c4ccccc4)nnn3c3ccccc23)c1C", "ANSWER LABEL": "active"}
{"COMPOUND": "O=C(CNC(=O)c1ccccc1)Oc1ccc([N+](=O)[O-])cc1", "ANSWER LABEL": "inactive"}
{"COMPOUND": "Cc1nnc(Sc2nc3c(c(=O)[nH]c(=O)n3C)n2Cc2ccccc2)s1", "ANSWER LABEL": "inactive"}

Hi, sorry to bother you, what did the test record for Cc1nc2ccccc2n1CC(O)c1ccccc1 (configuration not stated) ?
inactive

Hi, sorry to bother you, what did the test record for COc1ccc(C(=O)CN2C(=O)NC3(CCc4ccccc43)C2=O)c(OC)c1 (configuration not stated) ?
inactive

Hi, sorry to bother you, what did the test record for COc1cc(/C=N/NC(=O)CNC(=O)c2ccncc2)ccc1OC(C)=O ?
inactive

Hi, sorry to bother you, what did the test record for Cc1nc2nc(C)c(NS(=O)(=O)c3ccc(C(C)(C)C)cc3)c(=O)n2[nH]1 ?
inactive

Hi, sorry to bother you, what did the test record for C=C(C)Cn1c(N2CCCC2)nc2c1c(=O)[nH]c(=O)n2C ?
inactive

Hi, sorry to bother you, what did the test record for CCOc1ccc(C(C)=O)cc1COC(=O)CNC(=O)c1cccs1 ?
inactive

Hi, sorry to bother you, what did the test record for CCOC(=O)C1=C(CN2CCCCCC2)NC(=O)NC1c1cccc([N+](=O)[O-])c1 (configuration not stated) ?
inactive

Hi, sorry to bother you, what did the test record for CCOC(=O)C1C(c2ccc(Cl)cc2)NC(=S)NC1(O)C(F)(F)F (configuration not stated) ?
inactive

* * *

# PROCEDURE DETAILS: Primary qHTS for delayed death inhibitors of the malarial parasite plastid, 96 hour incubation
# STATED CONDITIONS: P. falciparum luciferase reporter growth; series mostly up to 28.7 µM
Hit rate of the full screen: of about 320,000 compounds, about 22,000 (6.9%) were called active. Roughly 27% stayed inconclusive and do not appear here. Calls follow the shape of the dose curve; as a rule, active = well fitted inhibition curve with a large enough effect; inconclusive = small, poorly fitted or top-dose-only effect, or another doubt; inactive = no such curve, though single readings can be large or run the other way. This excerpt belongs to a sample that is enriched for actives.
Form entry, call: pick from active, inactive

// known answers, use as guide
{"MOLECULE": "CC(OC(=O)c1cc2ccccc2o1)C(=O)Nc1ccc(N2CCOCC2)cc1 (stereo not given)", "ANSWER LABEL": "inactive"}
{"MOLECULE": "COc1ccc2[nH]c(C)c(CCN(Cc3cccs3)C(=S)Nc3ccccc3OC)c2c1", "ANSWER LABEL": "active"}
{"MOLECULE": "COC(=O)c1ccc(CNC(=O)c2ccc3oc(C(C)C)nc3c2)cc1", "ANSWER LABEL": "inactive"}
{"MOLECULE": "COc1ccc(OCc2cc(C(=O)N3CCCC3)no2)c2ccccc12", "ANSWER LABEL": "inactive"}
{"MOLECULE": "COCCn1c(SCC(=O)Nc2ccccc2F)nc2c(c1=O)SCC2", "ANSWER LABEL": "active"}
{"MOLECULE": "CCC(C)C(N=C1NS(=O)(=O)c2ccccc21)C(=O)N1CCC(C)CC1 (stereo not given)", "ANSWER LABEL": "inactive"}
{"MOLECULE": "O=C(NC1CC1)C(Cc1ccccc1)NS(=O)(=O)c1ccccc1F (stereo not given)", "ANSWER LABEL": "inactive"}
{"MOLECULE": "COCCn1c(SCC(=O)Nc2cc(Cl)ccc2OC)nc2c(c1=O)SC(C)C2 (stereo not given)", "ANSWER LABEL": "active"}
{"MOLECULE": "COc1ccc2nc(SCC(=O)Nc3c(C)cc(C)cc3C)[nH]c2c1", "ANSWER LABEL": "inactive"}

Hi, sorry to bother you, what did the test record for COc1cccc(NC(=O)c2ccccc2N(Cc2ccccc2)S(C)(=O)=O)c1 ?
inactive
